APPLIED CONDITIONS: in methanol, 320.65 K
METRIC NAME: solubility (mole fraction)
Numbers only.

Notebook: O=C1c2cccc(Cl)c2C(=O)N1c1ccccc1 , solubility (mole fraction) read as 0.000656

====

APPLIED CONDITIONS: in n-propanol, 288.15 K
METRIC NAME: solubility (mole fraction)

Field solubility (mole fraction) (entry O=C1c2cccc(Cl)c2C(=O)N1c1ccccc1 ) reads 0.000162

====

APPLIED CONDITIONS: in n-butanol, 293.15 K
METRIC NAME: solubility (mole fraction)
Numbers only.

Recorded result, O=C1c2cccc(Cl)c2C(=O)N1c1ccccc1 , solubility (mole fraction): 0.000234

====

APPLIED CONDITIONS: in n-propanol, 303.15 K
METRIC NAME: solubility (mole fraction)
Give bare numbers.

O=C1c2cccc(Cl)c2C(=O)N1c1ccccc1 has a reported solubility (mole fraction) of 0.000411

====

APPLIED CONDITIONS: in 1,4-dioxane, 290.65 K
METRIC NAME: solubility (mole fraction)
One number for each entry.

The compound identified as O=C1c2cccc(Cl)c2C(=O)N1c1ccccc1 registered its solubility (mole fraction) at 0.00898

====

APPLIED CONDITIONS: in acetonitrile, 293.15 K
METRIC NAME: solubility (mole fraction)
Give bare numbers.

Sample O=C1c2cccc(Cl)c2C(=O)N1c1ccccc1 ; solubility (mole fraction) observed: 0.00236

====

APPLIED CONDITIONS: in n-propanol, 290.65 K
METRIC NAME: solubility (mole fraction)

Memo: O=C1c2cccc(Cl)c2C(=O)N1c1ccccc1 , reported solubility (mole fraction): 0.000187

====

APPLIED CONDITIONS: in isobutanol, 323.15 K
METRIC NAME: solubility (mole fraction)

// recorded solubility (mole fraction) for O=C1c2cccc(Cl)c2C(=O)N1c1ccccc1 : 0.000762

====

APPLIED CONDITIONS: in methanol, 303.15 K
METRIC NAME: solubility (mole fraction)

Input O=C1c2cccc(Cl)c2C(=O)N1c1ccccc1 . Output solubility (mole fraction): 0.000308

====

APPLIED CONDITIONS: in acetonitrile, 318.15 K
METRIC NAME: solubility (mole fraction)

Memo: O=C1c2cccc(Cl)c2C(=O)N1c1ccccc1 , reported solubility (mole fraction): 0.00553

====

APPLIED CONDITIONS: in 1,4-dioxane, 308.15 K
METRIC NAME: solubility (mole fraction)
Numbers only.

Recorded solubility (mole fraction) (molecule O=C1c2cccc(Cl)c2C(=O)N1c1ccccc1 ): 0.0158

====

APPLIED CONDITIONS: in acetonitrile, 308.15 K
METRIC NAME: solubility (mole fraction)
One number for each entry.

Sure, the documented solubility (mole fraction) for O=C1c2cccc(Cl)c2C(=O)N1c1ccccc1 is 0.00397

====

APPLIED CONDITIONS: in isobutanol, 298.15 K
METRIC NAME: solubility (mole fraction)

The compound listed as O=C1c2cccc(Cl)c2C(=O)N1c1ccccc1 has a reported solubility (mole fraction) of 0.000189

====

APPLIED CONDITIONS: in n-butanol, 303.15 K
METRIC NAME: solubility (mole fraction)

Consider O=C1c2cccc(Cl)c2C(=O)N1c1ccccc1 . Its measured solubility (mole fraction) is 0.000388
